Task for the reader: assign each of the following compounds its reported pest or weed control at 4000 g/ha.
Tested on: wild mustard (Brassica kaber), also known as Sinapis arvensis (SINAR)
testName: post-emergent herbicidal test, wild mustard
Format: in vivo
measurementContext: Brassica, post-emergence, post-emergent, 4.0 kg/ha, 17-21 days after application; read-out: SINAR percent control
Report the value in % with no unit label.

Lab note: measured pest or weed control at 4000 g/ha of CC1CCC(C)N1CC(P(=O)(O)O)P(=O)(O)O (stereo not shown) was 95

Recorded result, `Cc1cccnc1NCC(P(=O)(O)O)P(=O)(O)O` , pest or weed control at 4000 g/ha: 0

The compound listed as CC1CCCCN1CC(P(=O)(O)O)P(=O)(O)O (stereo not shown) has a reported pest or weed control at 4000 g/ha of 100

pest or weed control at 4000 g/ha reading for O=P(O)(O)C(O)(C1CCCN1)P(=O)(O)O (stereo not shown) : 90

Item: `O=P(O)(O)C(CN1CCCCC1)P(=O)(O)O` | pest or weed control at 4000 g/ha: 100

Please fill in: pest or weed control at 4000 g/ha reported for `CC(C)CNCC(P(=O)(O)O)P(=O)(O)O` = 100

Quick note, pest or weed control at 4000 g/ha for O=P(O)(O)C(O)(C1CCCCN1)P(=O)(O)O (stereo not shown) landed at 100

// pest or weed control at 4000 g/ha lookup, compound = `CC(C)(C)NCC(P(=O)(O)O)P(=O)(O)O` , result: 100

get_value(item= `O=P(O)(O)C(CNNc1c(Cl)cc(C(F)(F)F)cc1Cl)P(=O)(O)O` , readout=pest or weed control at 4000 g/ha) returns 0

Value of measured pest or weed control at 4000 g/ha for the entry `O=P(O)(O)C(CNC1CCCCC1)P(=O)(O)O` : 100

Provenance of the data: patent US5756423A
